B1: Pistol ribozyme (parent)
chain: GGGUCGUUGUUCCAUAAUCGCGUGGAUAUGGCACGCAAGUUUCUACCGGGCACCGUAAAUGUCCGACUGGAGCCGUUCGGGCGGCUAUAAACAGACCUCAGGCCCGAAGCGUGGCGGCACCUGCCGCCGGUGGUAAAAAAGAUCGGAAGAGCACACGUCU

Variants of: B1
Test: aptazyme ON/OFF ratio, guanine; higher = stronger switching; co-transcriptional cleavage with and without guanine
// values below are reported aptazyme ON/OFF ratio
Readout Type: aptazyme ON/OFF ratio

[[record]]
mutation_list = "U7A G9C U10A U11G C12A"
readout_type = "aptazyme ON/OFF ratio"
observed_result = 1.04

[[record]]
mutation_list = "U7A U8C G9U U10A U11C C12A C13A"
readout_type = "aptazyme ON/OFF ratio"
observed_result = 1.17

[[record]]
mutation_list = "U7A U8C G9U U10C C12G"
readout_type = "aptazyme ON/OFF ratio"
observed_result = 1.57

[[record]]
mutation_list = "U7A U8C G9U U11G C12U"
readout_type = "aptazyme ON/OFF ratio"
observed_result = 1.35

[[record]]
mutation_list = "U7A U8C G9C U10A U11G C12U C13G"
readout_type = "aptazyme ON/OFF ratio"
observed_result = 1.14

[[record]]
mutation_list = "U7C G9C U11G C13G"
readout_type = "aptazyme ON/OFF ratio"
observed_result = 1.03

[[record]]
mutation_list = "U7G G9U U10C C12A C13G"
readout_type = "aptazyme ON/OFF ratio"
observed_result = 1.21

[[record]]
mutation_list = "U7C U8G G9A U11A C12U C13G"
readout_type = "aptazyme ON/OFF ratio"
observed_result = 1.17

[[record]]
mutation_list = "U8G G9U C12U C13G"
readout_type = "aptazyme ON/OFF ratio"
observed_result = 1.28

[[record]]
mutation_list = "U7C U8A U11C C12G C13U"
readout_type = "aptazyme ON/OFF ratio"
observed_result = 1.3

[[record]]
mutation_list = "U7A U8C G9C U11C C13U"
readout_type = "aptazyme ON/OFF ratio"
observed_result = 1.03

[[record]]
mutation_list = "U7A U8G G9A C12A C13U"
readout_type = "aptazyme ON/OFF ratio"
observed_result = 1.35

[[record]]
mutation_list = "U7G G9U U10G U11A C12G"
readout_type = "aptazyme ON/OFF ratio"
observed_result = 1.26

[[record]]
mutation_list = "U8G G9U U10C U11C C12G C13U"
readout_type = "aptazyme ON/OFF ratio"
observed_result = 1.09

